Tested on: SNB-75 CNS
Assay: NCI tumour cell line growth inhibition, 48 h
Property label: TGI (µM)
Numbers only, in µM.

Solved cases below.
input_smiles=C=C1C[C@@H]2O[C@H]3[C@H]4[C@@H](C[C@@H](C)[C@@H](OC(C)=O)[C@H]42)[C@@H](C)CO[C@@]3(C)[C@H](OC(=O)CCCCCCC)CC1=O assay_result=24.8
input_smiles=CC(C)=CCc1c(O)cc2oc(-c3ccc(O)cc3O)cc(=O)c2c1O assay_result=69.1

QUERY: Returns the measured TGI for the input compound. Input: "O=C([C@H](O)[C@@H](O)c1cccc(Cl)c1)C12CC3CC(CC(C3)C1)C2"
RESULT: 3.7

Values from PubChem BioAssay (NCI)
